- Assay remarks: Membrane permeabilization activity assessed as release of calcein from DOPE/DOPG liposomes at lipid:compound ratio of 8 incubated for 30 mins by fluorescence assay
- Type: ADME
- Condition context: 0.5 h
Property label: Activity (%)
Unit % implied. Number only.

>  <Given smiles>
COc1c(O)cc2oc3cc(O)c(CC=C(C)C)c(O)c3c(=O)c2c1CC=C(C)C

>  <Uom>
%

>  <Activity>
16

$$$$

We next turn to a different compound, shown below.
Which value of Activity has been reported for `CCN(CC)CCCCOc1cc2oc3cc(OCCCCN(CC)CC)c(OC)c(CCC(C)C)c3c(=O)c2c(O)c1CCC(C)C` in the records?
58.6
